Assay: Transepithelial transport of berberine and berbamine across Caco-2 cells
Format: in vitro ADME, human
Conditions: human; 100 µM; Caco-2 cells; read-out: Papp A to B direction
Counter-ions that a name gives are not always drawn.
readout label: Papp A→B at 3 h, 100 µM (×10⁻⁶ cm/s)
The answer is to be given in ×10⁻⁶ cm/s; state only the numeric part.

Quick one: Papp A→B at 3 h, 100 µM of COc1cc2c3cc1Oc1c(OC)c(OC)cc4c1[C@@H](Cc1ccc(O)c(c1)Oc1ccc(cc1)C[C@@H]3N(C)CC2)N(C)CC4 [Berbamine, berbamine dihydrochloride] ? 2.49

====

Assay: 14C-mannitol permeability (monolayer integrity) in MDCKII wild-type cells
Format: in vitro ADME, Canine
Conditions: dog, MDCK, read-out: apparent permeability (Papp)
Protocol: The human intestinal epithelial cell line, LS-180 was purchased from American Type Culture Collection (ATCC) (Manassas, VA, USA) and grown in Minimum Essential Medium supplemented with 10% FBS. The Caco-2 cells were obtained from ATCC. […] The integrity of the monolayers was assessed by measuring transepithelial electrical resistance (TEER) using a World Precision Instrument, EVOM (Sarasota, FL, USA) and evaluating ^14C-mannitol transport. […]
readout label: Papp (×10⁻⁶ cm/s)
The answer is to be given in ×10⁻⁶ cm/s; state only the numeric part.

Quick one: Papp of OC[C@@H](O)[C@@H](O)[C@H](O)[C@H](O)CO ? 2.16

====

Assay: 14C-mannitol permeability (monolayer integrity) in MDCKII-MDR1 cells
Format: in vitro ADME, Canine
Details: dog, MDCK-MDR1, read-out: apparent permeability (Papp)
readout label: Papp (×10⁻⁶ cm/s)
The answer is to be given in ×10⁻⁶ cm/s; state only the numeric part.

Quick one: Papp of OC[C@@H](O)[C@@H](O)[C@H](O)[C@H](O)CO ? 2.38

====

Assay: Transepithelial transport of berberine and berbamine across Caco-2 cells
Type: in vitro ADME, human
Settings: human, Caco-2, Caco-2 cells; read-out: efflux ratio
Structures can show the parent of a compound that is named as a salt.
readout label: efflux ratio at 3 h, 100 µM
Number, no unit, nothing else.

Quick one: efflux ratio at 3 h, 100 µM of COc1cc2c3cc1Oc1c(OC)c(OC)cc4c1[C@@H](Cc1ccc(O)c(c1)Oc1ccc(cc1)C[C@@H]3N(C)CC2)N(C)CC4 [Berbamine, berbamine dihydrochloride] ? 24.2
